# System: broadleaf signalgrass (Brachiaria decumbens)
# experimentalDetails: Test B pre-/postemergence
# Format: in vivo
# Parameters: key: 0 is no effect; 10 is complete control
# conditions: Rate 250 g/ha, Preemergence
Consider the following molecules and their measured Plant response rating, B. signalgrass readings.
// no unit string in output, number only

The cases that follow already have their Plant response rating, B. signalgrass on record.
chemicalString | Plant response rating, B. signalgrass
O=C(c1cccc(C(F)(F)F)c1)c1ccnc(-c2ccc(F)cc2F)n1 | 0
Cc1cnc(-c2ccc(C(F)(F)F)cc2)nc1Cn1ccc(C(F)(F)C(F)(F)F)n1 | 0
Cc1cnc(-c2ccc(C(F)(F)F)cc2)nc1Cc1cccc(C(F)(F)F)c1 | 9
O=C(c1cccc(C(F)(F)F)c1)c1ccnc(-c2ccc(C(F)(F)F)cc2)n1 | 0
Cc1cnc(-c2ccc(F)c(Cl)c2)nc1Cc1cccc(C(F)(F)F)c1 | 6
Cc1cnc(-c2ccc(C(F)(F)F)cc2)nc1Cn1nc(C(F)(F)F)cc1C | 9
COc1cnc(-n2ccc(C(F)(F)F)n2)nc1C(=O)c1cccc(C(F)(F)F)c1 | 3
Cc1cnc(-n2ccc(C(F)(F)F)n2)nc1C(=O)c1ccc(C(F)(F)F)cc1 | 1

Okay, now this molecule:
Data request, read-out Plant response rating, B. signalgrass, for `Cc1cnc(-c2ccc(C(F)(F)F)cc2)nc1Cn1ccc(C(F)(F)F)n1`
10
